Settings: human gut metagenome, 24 h, 2 µM; further: call rule not given here
measure: Bacterial Biotransformation

molecule="COC(=O)[C@H]1[C@H]2C[C@@H]3c4[nH]c5cc(OC)ccc5c4CCN3C[C@H]2C[C@@H](OC(=O)c2cc(OC)c(OC)c(OC)c2)[C@@H]1OC [RESERPINE]" val="Compound NOT metabolized"
molecule="CC[C@@H](CO)NC(=O)[C@@H]1C=C2c3cccc4c3c(cn4C)C[C@H]2N(C)C1.O=C(O)/C=C\\C(=O)O [METHYSERGIDE MALEATE]" val="Compound metabolized"
molecule="Nc1nc2ccc(OC(F)(F)F)cc2s1 [RILUZOLE]" val="Compound metabolized"
molecule="N#Cc1ccc(C(c2ccc(C#N)cc2)n2cncn2)cc1 [LETROZOLE]" val="Compound NOT metabolized"

###

Assay: The drug is tested on Z-025 corresponding to rabbit gut metagenome with ENA study accession number: PRJEB37062 and ENA sample accession number: ERS12561824 for biotransformation under anaerobic condition. The drug concentrations were measured over 9 timepoints collected between 0 and 24 hours of incubation by liquid-chromatography-coupled mass spectrometry (LC–MS)
Conditions: 2 µM
measure: Bacterial Biotransformation

compound="Cc1ccc(S(=O)(=O)NC(=O)NN2CC3CCCC3C2)cc1 (centres undefined) [GLICLAZIDE]" val="Compound NOT metabolized"
compound="C[C@@H](CO)NC(=O)[C@@H]1C=C2c3cccc4[nH]cc(c34)C[C@H]2N(C)C1.O=C(O)/C=C\\C(=O)O [ERGONOVINE MALEATE]" val="Compound NOT metabolized"
compound="COc1ccc(CCN(C)CCCC(C#N)(c2ccc(OC)c(OC)c2)C(C)C)cc1OC (centres undefined)" val="Compound NOT metabolized"

###

Assay: The drug is tested on WLS-052 corresponding to human gut metagenome with ENA study accession number: PRJEB37062 and ENA sample accession number: ERS12561747 for biotransformation under anaerobic condition. The drug concentrations were measured over 9 timepoints collected between 0 and 24 hours of incubation by liquid-chromatography-coupled mass spectrometry (LC–MS)
Conditions: 2 µM
measure: Bacterial Biotransformation

Here's what some known entries look like.
compound=C[C@@H]1C[C@H]2[C@@H]3CCC4=CC(=O)C=C[C@]4(C)[C@@]3(F)[C@@H](O)C[C@]2(C)[C@@]1(O)C(=O)CO measure="Bacterial Biotransformation" val="Compound NOT metabolized"
compound=C[C@@H]1CC[C@H]2[C@@H](C)C(=O)O[C@@H]3O[C@@]4(C)CC[C@@H]1[C@]32OO4 measure="Bacterial Biotransformation" val="Compound metabolized"
compound=CN/C(=N/CCSCc1nc[nH]c1C)NC#N measure="Bacterial Biotransformation" val="Compound NOT metabolized"
compound="COCCc1ccc(OCC(O)CNC(C)C)cc1.COCCc1ccc(OCC(O)CNC(C)C)cc1.O=C(O)C(O)C(O)C(=O)O (stereo unspecified) [METOPROLOL TARTRATE]" measure="Bacterial Biotransformation" val="Compound NOT metabolized"
compound="CC(C)(C(=O)O)c1ccc(C(O)CCCN2CCC(C(O)(c3ccccc3)c3ccccc3)CC2)cc1 (stereo unspecified) [FEXOFENADINE]" measure="Bacterial Biotransformation" val="Compound NOT metabolized"

Continue with the next compound.
Sample `CC[C@H](C)C(=O)O[C@H]1C[C@@H](C)C=C2C=C[C@H](C)[C@H](CC[C@@H]3C[C@@H](O)CC(=O)O3)[C@H]21` — what was its Bacterial Biotransformation?
Compound NOT metabolized

All figures here come from ChEMBL document CHEMBL5724914.
